- Target or test system: human insulin receptor (HIR) (human, UniProt P06213 28-1382, limits assumed)
- Assay notes: competition with 125I-insulin, solubilised HIR
What Kd was measured for each of the following?

Give me measured Kd, please, for this binder: SLEEEWAQVECEVYGRGCPSGSLDESFYHWFERQLG [S542]
0.027 nM

Return Kd for the following binder: LDQEWAWVQSEVYGRGSPSESFYDWFERQL [S509]
5.7 nM

In one line, give reported Kd of the entry SLEEEWAQVECEVYGRGCPSESFYDWFVRQLG [S555] .
0.057 nM

Note Kd for the binder shown: LEEEWAQIQREVWHSPASESFYDWFERQL [S595]
0.62 nM
